The reported measurements were obtained from patent US20230322924A1.

Target: Human CD33 ECD-HSA (human)
Sequence (chain, as listed by the source): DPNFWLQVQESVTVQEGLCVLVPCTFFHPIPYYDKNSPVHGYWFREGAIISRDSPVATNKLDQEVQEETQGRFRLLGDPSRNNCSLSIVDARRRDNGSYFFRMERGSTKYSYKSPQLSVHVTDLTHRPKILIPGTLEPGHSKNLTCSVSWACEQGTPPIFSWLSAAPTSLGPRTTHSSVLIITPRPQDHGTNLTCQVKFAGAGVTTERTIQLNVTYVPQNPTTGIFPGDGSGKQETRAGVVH
Test: SPRi off-rate screen (IBIS MX96), mAb captured by anti-human Fc; column head prints KD
Experimental Endpoint: koff

C33B46 (antibody, IgG1, V domains shown, huIgG1 F405L; also called C33F51; C33H108/C33L74) VH: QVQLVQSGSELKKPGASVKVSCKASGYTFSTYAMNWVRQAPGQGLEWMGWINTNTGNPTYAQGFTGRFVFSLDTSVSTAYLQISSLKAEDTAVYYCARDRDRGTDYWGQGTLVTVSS VL: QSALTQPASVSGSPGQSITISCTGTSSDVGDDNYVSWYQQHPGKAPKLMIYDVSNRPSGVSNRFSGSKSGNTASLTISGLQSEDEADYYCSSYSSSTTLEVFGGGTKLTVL	0.000467 s⁻¹
C33B96 (antibody, IgG1, V domains shown, huIgG1 F405L; also called C33F101; C33H99/C33L37) VH: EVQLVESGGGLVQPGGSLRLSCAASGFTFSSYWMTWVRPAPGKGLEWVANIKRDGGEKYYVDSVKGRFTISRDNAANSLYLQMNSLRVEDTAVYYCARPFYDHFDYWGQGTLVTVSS VL: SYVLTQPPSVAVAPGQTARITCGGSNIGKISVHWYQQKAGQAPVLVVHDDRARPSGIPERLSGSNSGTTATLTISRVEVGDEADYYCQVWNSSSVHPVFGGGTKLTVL	0.000228 s⁻¹
C33B52 (antibody, IgG1, V domains shown, huIgG1 F405L; also called C33F57; C33H42/C33L8) VH: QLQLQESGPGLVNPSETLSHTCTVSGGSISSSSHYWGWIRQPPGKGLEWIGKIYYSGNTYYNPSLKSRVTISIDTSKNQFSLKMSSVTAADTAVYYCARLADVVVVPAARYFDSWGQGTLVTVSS VL: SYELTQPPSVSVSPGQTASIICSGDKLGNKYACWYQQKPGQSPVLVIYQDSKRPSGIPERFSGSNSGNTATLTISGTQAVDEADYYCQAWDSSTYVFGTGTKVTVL	0.00313 s⁻¹

Please look at the items below and tell me koff for each one, in order.
1. C33B54 (antibody, IgG1, V domains shown, huIgG1 F405L; also called C33F59; C33H44/C33L10) VH: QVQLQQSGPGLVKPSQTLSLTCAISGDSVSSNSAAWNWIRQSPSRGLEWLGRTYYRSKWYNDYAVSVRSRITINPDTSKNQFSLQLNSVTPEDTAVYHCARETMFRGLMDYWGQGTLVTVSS VL: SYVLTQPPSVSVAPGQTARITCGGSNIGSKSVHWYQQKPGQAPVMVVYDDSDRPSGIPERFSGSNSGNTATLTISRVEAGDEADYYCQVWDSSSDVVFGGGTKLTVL
2. C33B82 (antibody, IgG1, V domains shown, huIgG1 F405L; also called C33F87; C33H78/C33L57) VH: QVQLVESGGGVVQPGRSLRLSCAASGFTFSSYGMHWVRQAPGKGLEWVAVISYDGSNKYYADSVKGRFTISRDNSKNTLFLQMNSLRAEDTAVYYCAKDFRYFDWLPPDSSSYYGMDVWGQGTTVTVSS VL: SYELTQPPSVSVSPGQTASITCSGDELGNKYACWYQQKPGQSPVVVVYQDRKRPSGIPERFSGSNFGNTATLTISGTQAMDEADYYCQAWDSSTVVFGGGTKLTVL
3. C33B80 (antibody, IgG1, V domains shown, huIgG1 F405L; also called C33F85; C33H76/C33L39) VH: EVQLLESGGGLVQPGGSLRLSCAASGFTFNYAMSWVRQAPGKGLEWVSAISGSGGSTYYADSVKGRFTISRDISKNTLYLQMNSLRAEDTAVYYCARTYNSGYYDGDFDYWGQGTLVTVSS VL: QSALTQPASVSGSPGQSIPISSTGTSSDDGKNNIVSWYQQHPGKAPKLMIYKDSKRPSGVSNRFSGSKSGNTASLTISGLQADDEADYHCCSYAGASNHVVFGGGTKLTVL

0.0248 s⁻¹
0.000341 s⁻¹
0.000384 s⁻¹

Please look at the items below and tell me koff for each one, in order.
1. C33B122 (antibody, IgG1, V domains shown, huIgG1 F405L; also called C33F127; C33H92/C33L30) VH: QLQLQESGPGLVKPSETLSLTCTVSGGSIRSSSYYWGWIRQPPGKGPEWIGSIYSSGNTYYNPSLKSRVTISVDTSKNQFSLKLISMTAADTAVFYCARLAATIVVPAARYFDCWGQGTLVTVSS VL: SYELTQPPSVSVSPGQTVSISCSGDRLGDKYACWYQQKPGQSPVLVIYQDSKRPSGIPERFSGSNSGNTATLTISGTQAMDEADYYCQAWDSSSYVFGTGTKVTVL
2. C33B48 (antibody, IgG1, V domains shown, huIgG1 F405L; also called C33F53; C33H80/C33L73) VH: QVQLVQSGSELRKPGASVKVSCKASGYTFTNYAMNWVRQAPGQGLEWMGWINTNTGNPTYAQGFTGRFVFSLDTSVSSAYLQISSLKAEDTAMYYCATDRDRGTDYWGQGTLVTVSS VL: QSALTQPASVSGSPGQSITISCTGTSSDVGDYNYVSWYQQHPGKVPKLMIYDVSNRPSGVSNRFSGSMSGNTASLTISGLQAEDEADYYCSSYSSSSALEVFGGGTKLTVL
3. C33B73 (antibody, IgG1, V domains shown, huIgG1 F405L; also called C33F78; C33H66/C33L60) VH: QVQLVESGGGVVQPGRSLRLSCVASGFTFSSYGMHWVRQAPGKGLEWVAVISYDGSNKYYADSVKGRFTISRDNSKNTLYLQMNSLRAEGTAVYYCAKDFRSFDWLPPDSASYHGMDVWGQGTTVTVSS VL: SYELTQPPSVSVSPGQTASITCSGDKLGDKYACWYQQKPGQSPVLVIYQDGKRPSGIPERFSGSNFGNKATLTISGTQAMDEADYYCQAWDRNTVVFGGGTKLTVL
4. C33B79 (antibody, IgG1, V domains shown, huIgG1 F405L; also called C33F84; C33H74/C33L38) VH: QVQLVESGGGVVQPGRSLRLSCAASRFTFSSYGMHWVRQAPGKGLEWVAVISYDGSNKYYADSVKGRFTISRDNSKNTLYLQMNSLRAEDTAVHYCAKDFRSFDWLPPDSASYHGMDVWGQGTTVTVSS VL: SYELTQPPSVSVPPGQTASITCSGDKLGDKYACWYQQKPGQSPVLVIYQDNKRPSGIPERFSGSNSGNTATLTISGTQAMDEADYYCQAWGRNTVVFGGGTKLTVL

0.00874 s⁻¹
5.47e-05 s⁻¹
9.12e-05 s⁻¹
0.000328 s⁻¹
